// provenance: patent US20110243928A1

- Assay System: T1, E. coli-expressed recombinant det-1 tagged human IL-13 (human, UniProt P35225 35-146)
- T1 construct: also called Det-1 tagged human IL-13 (made in-house); not shown: det-1 tag
- T1 sequence (P35225 other isoform, or with tags, fused parts or gaps): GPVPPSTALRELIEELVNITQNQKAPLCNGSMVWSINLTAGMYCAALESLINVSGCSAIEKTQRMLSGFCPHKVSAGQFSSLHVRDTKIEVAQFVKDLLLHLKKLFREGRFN
- Assay: competition ELISA: inhibition of det-1 tagged human IL-13 binding to human IL-13Rα1-Fc
Quick reference: IC50 of the listed items.
Assay Metric: IC50 (µg/mL)

| Binder | Measured Number |
| --- | --- |
| L1+A1 (antibody, human IgG1, kappa, V domains shown, Humanised 6A1, VH construct A1 and VL construct L1, human gamma1 wild type / kappa constant regions; also called A1L1; humanised anti-IL-13 mAb L1+A1) VH: QVQLVQSGAEVKKPGSSVKVSCKASGFYIKDTYMHWVRQAPGQGLEWMGTIDPANGNTKYVPKFQGRVTITADESTSTAYMELSSLRSEDTAVYYCARSIYDDYHYDDYYAMDYWGQGTLVTVSS VL: DIVMTQSPLSLPVTPGEPASISCRSSQNIVHINGNTYLEWYLQKPGQSPRLLIYKISDRFSGVPDRFSGSGSGTDFTLKISRVEADDVGIYYCFQGSHVPWTFGQGTKLEIKR | 0.044 |
| monoclonal antibody 6A1 (antibody, IgG1, V domains shown, also called 6A1 parental mAb; parental mouse mAb 6A1) VH: EIQLQQSVAELVRPGASVRLSCTASGFYIKDTYMHWVIQRPEQGLEWIGTIDPANGNTKYVPKFQGKATITADTSSNTAYLRLSSLTSEDTAIYYCARSIYDDYHYDDYYAMDYWGQGTSVTVSS VL: DVLMTQTPLSLPVSLGDQASISCRSSQNIVHINGNTYLEWYLQKPGQSPKLLIYKISDRFSGVPDRFSGSGSGTDFTLKISRVEAEDLGVYYCFQGSHVPWTFGGGTKLEIK | 0.039 |
| L2+A1 (antibody, human IgG1, kappa, V domains shown, Humanised 6A1, VH construct A1 and VL construct L2; also called A1L2) VH: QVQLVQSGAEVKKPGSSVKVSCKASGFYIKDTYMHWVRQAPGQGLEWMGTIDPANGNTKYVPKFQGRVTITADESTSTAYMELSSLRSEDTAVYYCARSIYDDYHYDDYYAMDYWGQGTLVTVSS VL: DIVMTQSPLSLPVTPGEPASISCRSSQNIVHINGNTYLEWYLQKPGQSPRLLIYKISDRFSGVPDRFSGSGSGTDFTLKISRVEADDVGVYYCFQGSHVPWTFGQGTKLEIKR | 0.056 |
| chimaeric 6A1 (antibody, human IgG1, V domains shown, Parent murine 6A1 V regions on human IgG1/k wild type C regions, expressed in CHO cells; also called 6A1c; 6A1 chimaeric antibody) VH: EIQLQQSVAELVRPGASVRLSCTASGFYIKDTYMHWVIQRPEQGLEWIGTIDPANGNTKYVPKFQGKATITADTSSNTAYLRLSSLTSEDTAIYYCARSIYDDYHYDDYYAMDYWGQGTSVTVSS VL: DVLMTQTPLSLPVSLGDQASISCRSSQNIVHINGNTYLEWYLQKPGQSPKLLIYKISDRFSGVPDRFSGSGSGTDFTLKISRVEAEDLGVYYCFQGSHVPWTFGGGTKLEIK | 0.034 |
